molecular target: Dihydroorotate dehydrogenase (quinone), mitochondrial (Plasmodium falciparum (isolate 3D7)); assay: PfDHODH enzyme inhibitors, primary screen, biochemical, C-terminal His tag, absorbance 600 nm (AID 1175); conditions: DCIP absorbance 600 nm, higher = more signal, called active from +8 up or from −8 down;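 further: recombinant parasite enzyme with a five histidine tag at its C terminus; test concentration not given here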
The source made the active and inactive calls.
reported_endpoint: composite z-score

// known answers, use as guide
| compound_structure_string | composite z-score |
| --- | --- |
| COCCCNC(=O)[C@@]1(Cc2ccccc2CN=[N+]=[N-])COC(c2ccc(OCCCO)cc2)=N1 | -0.49 (inactive) |
| O=C1O[C@H](c2ccccc2)[C@H](c2ccccc2)N2[C@H]1[C@@H](C(=O)NC[C@H](O)c1ccccc1)[C@]1(C(=O)Nc3ccc(C#CC4(O)CCCCCC4)cc31)[C@H]2c1ccc(O)cc1 | -0.154 (inactive) |

Let's switch to this compound now.
# input Reported composite z-score, compound C=CCN1C(=O)[C@@]2(O[C@@H](CCn3cc(CCO)nn3)[C@H]([Si](C)(C)c3ccc(OC)cc3)[C@H]2C)c2cc(NC(=O)c3ccc(OC)cc3)ccc21 : ____
# output -0.118 (inactive)

Data origin, for the record: PubChem BioAssay
